Test system: Escherichia coli ATCC 25922
Assay type: cell-based
Non-standard residues stand in square brackets, D forms with d. Residues, ends and D or L forms follow the SMILES beside them. dPhe(4-CF3) = N[C@H](Cc1ccc(C(F)(F)F)cc1)C(=O)O; d2Nal = N[C@H](Cc1ccc2ccccc2c1)C(=O)O; dNva = CCC[C@@H](N)C(=O)O
MIC Escherichia coli ATCC 25922 by entry:

[
  {
    "MOLECULE": "CC(=O)N[C@H](CCCNC(=N)N)C(=O)N[C@H](CCCCN)C(=O)N[C@H](CC(C)C)C(=O)N[C@H](CC(C)C)C(=O)N[C@H](Cc1ccc(C(F)(F)F)cc1)C(=O)N[C@H](CCCCN)C(=O)N[C@H](CC(C)C)C(=O)N[C@H](CCCCN)C(=O)N[C@H](Cc1ccc(C(F)(F)F)cc1)C(=O)N[C@H](CCCCN)C(=O)N[C@H](CCCNC(=N)N)C(N)=O [LV-9] (Ac-[dR][dK][dL][dL][dPhe(4-CF3)][dK][dL][dK][dPhe(4-CF3)][dK][dR]-NH2)",
    "ENDPOINT_UNIT": "µg/mL",
    "MIC Escherichia coli ATCC 25922": 2
  },
  {
    "MOLECULE": "CCC[C@@H](NC(=O)[C@@H](CCCCN)NC(=O)[C@@H](CCCNC(=N)N)NC(C)=O)C(=O)N[C@H](CCC)C(=O)N[C@H](Cc1ccc2ccccc2c1)C(=O)N[C@H](CCCNC(=N)N)C(=O)N[C@H](CCC)C(=O)N[C@H](CCCCN)C(=O)N[C@H](Cc1ccc2ccccc2c1)C(=O)N[C@H](CCCNC(=N)N)C(=O)N[C@H](CCCCN)C(N)=O [LV-13] (Ac-[dR][dK][dNva][dNva][d2Nal][dR][dNva][dK][d2Nal][dR][dK]-NH2)",
    "ENDPOINT_UNIT": "µg/mL",
    "MIC Escherichia coli ATCC 25922": 2
  },
  {
    "MOLECULE": "CC(=O)N[C@H](CCCNC(=N)N)C(=O)N[C@H](CCCCN)C(=O)N[C@@H](C(=O)N[C@@H](C(=O)N[C@H](Cc1ccc2ccccc2c1)C(=O)N[C@H](CCCNC(=N)N)C(=O)N[C@@H](C(=O)N[C@H](CCCCN)C(=O)N[C@H](Cc1ccc2ccccc2c1)C(=O)N[C@H](CCCNC(=N)N)C(=O)N[C@H](CCCCN)C(N)=O)C(C)C)C(C)C)C(C)C [LV-16] (Ac-[dR][dK][dV][dV][d2Nal][dR][dV][dK][d2Nal][dR][dK]-NH2)",
    "ENDPOINT_UNIT": "µg/mL",
    "MIC Escherichia coli ATCC 25922": 1
  }
]

* * *

TEST_NAME: Serum stability assay (residual level by RP-HPLC)
CONDITION_SET: human
Non-standard residues stand in square brackets, D forms with d. Residues, ends and D or L forms follow the SMILES beside them. d2Nal = N[C@H](Cc1ccc2ccccc2c1)C(=O)O; dNle = CCCC[C@@H](N)C(=O)O
Listed here are compounds together with their documented remaining at 12 h, 0.91 mg/mL.

[
  {
    "COMPOUND": "CCCC[C@@H](NC(=O)[C@@H](CCCCN)NC(=O)[C@@H](CCCNC(=N)N)NC(C)=O)C(=O)N[C@H](CCCC)C(=O)N[C@H](Cc1ccc2ccccc2c1)C(=O)N[C@H](CCCNC(=N)N)C(=O)N[C@H](CCCC)C(=O)N[C@H](CCCCN)C(=O)N[C@H](Cc1ccc2ccccc2c1)C(=O)N[C@H](CCCNC(=N)N)C(=O)N[C@H](CCCCN)C(N)=O [LV-12] (Ac-[dR][dK][dNle][dNle][d2Nal][dR][dNle][dK][d2Nal][dR][dK]-NH2)",
    "remaining at 12 h, 0.91 mg/mL": "97.5%"
  },
  {
    "COMPOUND": "CC(=O)N[C@H](CCCCN)C(=O)N[C@H](CCCNC(=N)N)C(=O)N[C@H](CC(C)C)C(=O)N[C@H](CC(C)C)C(=O)N[C@H](Cc1ccc2ccccc2c1)C(=O)N[C@H](CCCCN)C(=O)N[C@H](CC(C)C)C(=O)N[C@H](CCCCN)C(=O)N[C@H](Cc1ccc2ccccc2c1)C(=O)N[C@H](CCCCN)C(=O)N[C@H](CCCNC(=N)N)C(N)=O [LV-23] (Ac-[dK][dR][dL][dL][d2Nal][dK][dL][dK][d2Nal][dK][dR]-NH2)",
    "remaining at 12 h, 0.91 mg/mL": "97.5%"
  },
  {
    "COMPOUND": "CC(=O)N[C@H](CCCNC(=N)N)C(=O)N[C@H](CCCCN)C(=O)N[C@H](CC(C)C)C(=O)N[C@H](CC(C)C)C(=O)N[C@H](Cc1ccc2ccccc2c1)C(=O)N[C@H](CCCNC(=N)N)C(=O)N[C@H](CC(C)C)C(=O)N[C@H](CCCCN)C(=O)N[C@H](Cc1ccc2ccccc2c1)C(=O)N[C@H](CCCNC(=N)N)C(=O)N[C@H](CCCNC(=N)N)C(N)=O [LV-22] (Ac-[dR][dK][dL][dL][d2Nal][dR][dL][dK][d2Nal][dR][dR]-NH2)",
    "remaining at 12 h, 0.91 mg/mL": "97.2%"
  }
]

* * *

Consider the following molecules and their measured MHC (minimum hemolytic concentration, lowest concentration causing 10% hemolysis) readings.
System: rabbit red blood cells
Assay type: cell-based
CONDITION_SET: red cells of rabbit, 1 h
Non-standard residues stand in square brackets, D forms with d. Residues, ends and D or L forms follow the SMILES beside them. dPhe(3,4-Cl2) = N[C@H](Cc1ccc(Cl)c(Cl)c1)C(=O)O; 2Nal = N[C@@H](Cc1ccc2ccccc2c1)C(=O)O; d2Nal = N[C@H](Cc1ccc2ccccc2c1)C(=O)O
MEASURED_ATTRIBUTE: MHC (minimum hemolytic concentration, lowest concentration causing 10% hemolysis)

[
  {
    "MOLECULE": "CC(=O)N[C@@H](CCCNC(=N)N)C(=O)N[C@@H](CCCNC(=N)N)C(=O)N[C@@H](CC(C)C)C(=O)N[C@@H](CC(C)C)C(=O)N[C@@H](Cc1ccc2ccccc2c1)C(=O)N[C@@H](CCCNC(=N)N)C(=O)N[C@@H](CC(C)C)C(=O)N[C@@H](CCCNC(=N)N)C(=O)N[C@@H](Cc1ccc2ccccc2c1)C(=O)N[C@@H](CCCNC(=N)N)C(=O)N[C@@H](CCCNC(=N)N)C(N)=O [LV-31] (Ac-RRLL[2Nal]RLR[2Nal]RR-NH2)",
    "RESULT_VALUE": ">1000 µg/mL"
  },
  {
    "MOLECULE": "CC(=O)N[C@H](CCCNC(=N)N)C(=O)N[C@H](CCCCN)C(=O)N[C@H](CC(C)C)C(=O)N[C@H](CC(C)C)C(=O)N[C@H](Cc1ccc(Cl)c(Cl)c1)C(=O)N[C@H](CCCCN)C(=O)N[C@H](CC(C)C)C(=O)N[C@H](CCCCN)C(=O)N[C@H](Cc1ccc(Cl)c(Cl)c1)C(=O)N[C@H](CCCCN)C(=O)N[C@H](CCCNC(=N)N)C(N)=O [LV-8] (Ac-[dR][dK][dL][dL][dPhe(3,4-Cl2)][dK][dL][dK][dPhe(3,4-Cl2)][dK][dR]-NH2)",
    "RESULT_VALUE": ">1000 µg/mL"
  },
  {
    "MOLECULE": "CC(=O)N[C@H](CCCNC(=N)N)C(=O)N[C@H](CCCNC(=N)N)C(=O)N[C@H](CC(C)C)C(=O)N[C@H](CC(C)C)C(=O)N[C@H](Cc1ccc2ccccc2c1)C(=O)N[C@H](CCCCN)C(=O)N[C@H](CC(C)C)C(=O)N[C@H](CCCCN)C(=O)N[C@H](Cc1ccc2ccccc2c1)C(=O)N[C@H](CCCCN)C(=O)N[C@H](CCCNC(=N)N)C(N)=O [LV-24] (Ac-[dR][dR][dL][dL][d2Nal][dK][dL][dK][d2Nal][dK][dR]-NH2)",
    "RESULT_VALUE": ">1000 µg/mL"
  }
]
